These data points were gathered from ChEMBL document CHEMBL6071123.

# Test system: BaF3
# ASSAY_EXPLANATION: Antiproliferative activity against mouse BaF3 cells harbouring FGFR2 V564F mutant assessed as reduction in cell viability incubated for 72 hrs by CCK-8 method
# Assay type: functional, cell-based
# TEST_PARAMETERS: BaF3, 72 h
pIC50: −log10 of the molar value.
ASSAY_METRIC: pIC50

| SMILES_DATA | STUDY_SYSTEM | ASSAY_METRIC | OBSERVED_RESULT |
| --- | --- | --- | --- |
| C=CC(=O)Nc1cccc(Cn2nc(C#Cc3c(F)cc4[nH]c(C)nc4c3F)c(C(N)=O)c2N)c1 | BaF3 | pIC50 | 7.06 |

----------
# STUDY_SYSTEM: Fibroblast growth factor receptor 1 (Homo sapiens, UniProt P11362)
# Sequence (P11362 whole entry): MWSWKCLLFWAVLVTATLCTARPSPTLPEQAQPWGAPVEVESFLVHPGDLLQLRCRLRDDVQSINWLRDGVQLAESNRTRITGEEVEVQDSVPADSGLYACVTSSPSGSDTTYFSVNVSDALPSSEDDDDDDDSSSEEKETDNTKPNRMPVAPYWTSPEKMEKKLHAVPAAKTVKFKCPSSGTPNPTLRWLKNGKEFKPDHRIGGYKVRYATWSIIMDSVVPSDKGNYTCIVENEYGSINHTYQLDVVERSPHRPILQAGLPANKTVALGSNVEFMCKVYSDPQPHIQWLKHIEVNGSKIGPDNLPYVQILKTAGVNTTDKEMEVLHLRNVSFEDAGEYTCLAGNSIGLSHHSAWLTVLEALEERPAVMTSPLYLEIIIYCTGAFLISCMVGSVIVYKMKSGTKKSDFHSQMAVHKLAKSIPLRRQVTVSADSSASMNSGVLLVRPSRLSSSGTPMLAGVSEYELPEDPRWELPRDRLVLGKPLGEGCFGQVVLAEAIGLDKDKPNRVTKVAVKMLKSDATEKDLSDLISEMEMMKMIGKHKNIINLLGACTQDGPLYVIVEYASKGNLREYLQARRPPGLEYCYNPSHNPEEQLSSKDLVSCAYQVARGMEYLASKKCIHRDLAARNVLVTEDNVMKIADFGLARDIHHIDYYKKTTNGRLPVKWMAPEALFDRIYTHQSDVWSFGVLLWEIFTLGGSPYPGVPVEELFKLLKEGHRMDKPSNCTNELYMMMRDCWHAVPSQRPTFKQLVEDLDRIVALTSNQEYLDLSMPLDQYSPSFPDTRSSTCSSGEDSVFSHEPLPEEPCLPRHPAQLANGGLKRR
# ASSAY_EXPLANATION: biochemical
# Format: cell-based
# Description: Inhibition of N-terminal 6-his tagged human wild type FGFR1 (458 to 765 residues) expressed in Escherichia coli BL21 cells using Tyr 04 peptide as substrate incubated for 1 hr by FRET based Z-lyte assay
The threshold is 900 nM. Values of IC50 beneath it are tagged yes (1); values meeting or exceeding it are tagged no (0).

| SMILES_DATA | CLASSIFICATION |
| --- | --- |
| C=CC(=O)Nc1ccc(CCn2nc(C#Cc3cc(OC)cc(OC)c3)c3c(N)ncnc32)cc1 | no (0) |
| C=CC(=O)Nc1cccc(Cn2nc(C#Cc3c(F)cc4[nH]c(C)nc4c3F)c(C(N)=O)c2NCC)c1 | no (0) |
| C=CC(=O)Nc1ccc(Cn2nc(C#Cc3ccc4sc(C)nc4c3)c(C(N)=O)c2N)cc1 | no (0) |
| C=CC(=O)Nc1ccc(CCCCn2nc(C#Cc3cc(OC)cc(OC)c3)c3c(N)ncnc32)cc1 | no (0) |
| C=CC(=O)Nc1ccc(Cn2nc(C#Cc3c(F)cc4[nH]c(C)nc4c3F)c(C(N)=O)c2N)cc1 | yes (1) |
| C=CC(=O)Nc1ccc(Cn2nc(-c3ccc(Oc4ccccc4)cc3)c3c(N)ncnc32)cc1 | no (0) |
| C=CC(=O)Nc1ccc(Cn2nc(-c3ccc4[nH]c(C)nc4c3)c3c(N)ncnc32)cc1 | no (0) |
| C=CC(=O)Nc1ccc(Cn2nc(-c3ccc(Oc4nccc(C)n4)c(F)c3)c3c(N)ncnc32)cc1 | no (0) |
| C=CC(=O)Nc1ccc(Cn2nc(C#Cc3ccc4oc(C)nc4c3)c(C(N)=O)c2N)cc1 | yes (1) |
| C=CC(=O)Nc1ccc(CCCn2nc(C#Cc3cc(OC)cc(OC)c3)c3c(N)ncnc32)cc1 | no (0) |
| C=CC(=O)Nc1ccc(Cn2nc(C#Cc3ccc(-c4c[nH]c(C)n4)cc3)c(C(N)=O)c2N)cc1 | no (0) |
| C=CC(=O)Nc1ccc(Cn2nc(C#Cc3ccc4[nH]c(C)nc4c3)c3c(N)ncnc32)cc1 | yes (1) |
| C=CC(=O)Nc1ccc(Cn2nc(-c3cc4cc(C)cc(OC)c4s3)c3c(N)ncnc32)cc1 | yes (1) |
| C=CC(=O)Nc1ccc(Cn2nc(C#Cc3ccc4[nH]c(C)nc4c3)c(C(N)=O)c2N)cc1 | yes (1) |
| C=CC(=O)Nc1ccc(Cn2nc(C#Cc3cc(OC)cc(OC)c3)c3c(N)ncnc32)cc1 | yes (1) |
| C=CC(=O)Nc1cccc(Cn2nc(C#Cc3c(F)cc4[nH]c(C)nc4c3F)c(C(N)=O)c2NCCOC)c1 | no (0) |
| C=CC(=O)Nc1cccc(Cn2nc(C#Cc3c(F)cc4[nH]c(C)nc4c3F)c(C(N)=O)c2NC)c1 | no (0) |

----------
# ASSAY_EXPLANATION: Metabolic stability in human liver microsomes assessed as intrinsic clearance at 1 uM measured upto 45 mins in presence of NADPH by HPLC-MS/MS analysis
# Assay type: ADME, Microsome
# TEST_PARAMETERS: read-out: CLH
Catalogue of molecules with associated CLint scaled at 1 µM

| SMILES_DATA | UNITS_OF_MEASURE | CLint scaled at 1 µM |
| --- | --- | --- |
| C=CC(=O)Nc1cccc(Cn2nc(C#Cc3c(F)cc4[nH]c(C)nc4c3F)c(C(N)=O)c2N)c1 | mL/min/kg | 34.5 |
| O=C(c1ccc(F)cc1)C1CCN(CCn2c(=O)[nH]c3ccccc3c2=O)CC1 | mL/min/kg | 36.7 |

----------
# STUDY_SYSTEM: Fibroblast growth factor receptor 2 (Homo sapiens)
# Sequence (P21802 whole entry): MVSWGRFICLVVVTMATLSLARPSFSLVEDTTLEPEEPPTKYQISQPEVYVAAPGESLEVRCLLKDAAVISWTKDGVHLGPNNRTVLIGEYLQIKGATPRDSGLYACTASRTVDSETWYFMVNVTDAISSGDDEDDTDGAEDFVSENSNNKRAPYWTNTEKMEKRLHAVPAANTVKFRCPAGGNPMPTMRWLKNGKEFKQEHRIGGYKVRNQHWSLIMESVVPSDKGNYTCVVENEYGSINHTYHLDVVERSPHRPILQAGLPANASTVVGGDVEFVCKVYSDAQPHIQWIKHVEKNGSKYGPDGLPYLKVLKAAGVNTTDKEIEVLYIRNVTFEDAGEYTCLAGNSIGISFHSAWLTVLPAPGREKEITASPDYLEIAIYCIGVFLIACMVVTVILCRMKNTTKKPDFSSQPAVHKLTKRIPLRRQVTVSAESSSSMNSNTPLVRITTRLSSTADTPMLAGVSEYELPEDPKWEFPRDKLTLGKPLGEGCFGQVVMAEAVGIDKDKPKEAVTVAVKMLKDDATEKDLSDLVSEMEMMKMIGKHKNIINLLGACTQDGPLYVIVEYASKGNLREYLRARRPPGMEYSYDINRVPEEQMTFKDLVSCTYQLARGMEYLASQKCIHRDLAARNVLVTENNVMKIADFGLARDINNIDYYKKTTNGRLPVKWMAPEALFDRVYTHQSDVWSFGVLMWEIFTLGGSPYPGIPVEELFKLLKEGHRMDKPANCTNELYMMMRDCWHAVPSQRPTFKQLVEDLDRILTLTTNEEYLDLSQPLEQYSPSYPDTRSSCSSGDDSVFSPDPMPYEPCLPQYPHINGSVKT
# ASSAY_EXPLANATION: biochemical
# Description: Inhibition of N-terminal 6-his tagged human wild type FGFR2 (458 to 768 residues) expressed in Escherichia coli BL21 cells using Tyr 04 peptide as substrate incubated for 1 hr by FRET based Z-lyte assay
pIC50: −log10 of the molar value.

| SMILES_DATA | pIC50 |
| --- | --- |
| C=CC(=O)Nc1cccc(Cn2nc(C#Cc3c(F)cc4[nH]c(C)nc4c3F)c(C(N)=O)c2N)c1 | 7.39 |

----------
# ASSAY_EXPLANATION: Metabolic stability in human liver microsomes assessed as half life at 1 uM measured upto 45 mins in presence of NADPH by HPLC-MS/MS analysis
# Assay type: ADME, Microsome

| COMPOUND | half-life at 1 µM, min |
| --- | --- |
| C=CC(=O)Nc1cccc(Cn2nc(C#Cc3c(F)cc4[nH]c(C)nc4c3F)c(C(N)=O)c2N)c1 | 46.4 |
| O=C(c1ccc(F)cc1)C1CCN(CCn2c(=O)[nH]c3ccccc3c2=O)CC1 [KETANSERIN] | 43.7 |

----------
Listing: pIC50 of selected compounds
# ASSAY_EXPLANATION: Antiproliferative activity against human KATO III stomach cancer cell line measured after 3 days by CCK-8 method
# Format: functional, cell-based
# TEST_PARAMETERS: 72 h
pIC50: −log10 of the molar value.
ASSAY_METRIC: pIC50

| SMILES_DATA | OBSERVED_RESULT |
| --- | --- |
| C=CC(=O)Nc1cccc(Cn2nc(C#Cc3c(F)cc4[nH]c(C)nc4c3F)c(C(N)=O)c2N)c1 | 7.23 |
| C=CC(=O)N1CC[C@H](n2nc(C#Cc3cc(OC)cc(OC)c3)c3c(N)ncnc32)C1 | 8.40 |

----------
# ASSAY_EXPLANATION: Metabolic stability in human liver microsomes assessed as hepatic extraction ratio at 1 uM measured upto 45 mins in presence of NADPH by HPLC-MS/MS analysis
# Format: ADME, Microsome
# TEST_PARAMETERS: read-out: ERH
ASSAY_METRIC: hepatic extraction ratio at 0.75 h, 1 µM

| MOLECULE | ASSAY_METRIC | OBSERVED_RESULT |
| --- | --- | --- |
| O=C(c1ccc(F)cc1)C1CCN(CCn2c(=O)[nH]c3ccccc3c2=O)CC1 [KETANSERIN] | hepatic extraction ratio at 0.75 h, 1 µM | 0.639 |
